Target: T1, CD73 on the surface of human tumor cells (human, UniProt P21589 27-549)
T1 chain: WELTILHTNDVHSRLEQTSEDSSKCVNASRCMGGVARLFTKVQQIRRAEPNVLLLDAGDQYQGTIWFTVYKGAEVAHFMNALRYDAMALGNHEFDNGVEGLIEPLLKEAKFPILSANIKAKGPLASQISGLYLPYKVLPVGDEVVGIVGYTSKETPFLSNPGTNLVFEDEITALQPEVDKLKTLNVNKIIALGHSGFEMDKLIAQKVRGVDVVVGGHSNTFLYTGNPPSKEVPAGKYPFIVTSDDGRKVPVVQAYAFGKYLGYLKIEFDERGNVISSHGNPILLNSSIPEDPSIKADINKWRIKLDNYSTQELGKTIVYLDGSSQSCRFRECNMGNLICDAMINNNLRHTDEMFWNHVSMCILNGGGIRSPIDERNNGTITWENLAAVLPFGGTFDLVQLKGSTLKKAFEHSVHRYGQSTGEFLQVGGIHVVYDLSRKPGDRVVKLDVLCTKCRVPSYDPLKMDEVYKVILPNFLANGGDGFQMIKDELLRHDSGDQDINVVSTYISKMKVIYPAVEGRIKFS
Assay: FACS; NCI-H1299 cells, left table
readout-kind: EC50 (pM)
Note: unit pM is implicit; provide only the numeric part.

Req: Which EC50 reading was recorded for the binder mAb002c-VH-QG/VK-SG (antibody, V domains shown) VH: QVQLQQPGAELVKPGASVRLSCKASGYTLTSYWMHWVKKRPGQGLEWIGEINPSQGRSNYNEKFKSKATLTVDRSSSTVYMQLGSLTSEDSAVYYCARRGVSGNYFDYWGQGTTLTVSS VL: DIKMTQSPSSMYASLGERVTMTCKASQDINTYLSWFQQKPGKSPKTLIYRSNILVSGVPSRFSGSRSGQDYYLTITSLEYEDMGIYYCLQYDEFPYTFGGGTKLELK ?
Resp: 730

Req: Would you kindly repeat that for Hu002c-7 (antibody, V domains shown) VH: QVQLVQSGAEVKKPGASVKVSCKASGYTLTSYWMHWVRQAPGQGLEWIGEINPSQGRSNYNEKFKSRVTLTVDRSTSTVYMELSSLRSEDTAVYYCARRGVSGNYFDYWGQGTLVTVSS VL: DIQMTQSPSSLSASVGDRVTITCKASQDINTYLSWFQQKPGKSPKSLIYRSNILVSGVPSRFSGSGSGQDYTLTISSLQPEDFATYYCLQYDEFPYTFGGGTKLEIK ?
Resp: 829

Req: Would you kindly repeat that for Hu002c-8 (antibody, V domains shown) VH: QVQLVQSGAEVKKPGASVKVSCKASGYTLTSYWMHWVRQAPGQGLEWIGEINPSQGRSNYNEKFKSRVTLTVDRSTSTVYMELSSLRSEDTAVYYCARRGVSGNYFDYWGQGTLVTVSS VL: DIQMTQSPSSLSASVGDRVTITCKASQDINTYLSWFQQKPGKSPKSLIYRSNILVSGVPSRFSGSGSGQDYTLTISSLQPEDFAIYYCLQYDEFPYTFGGGTKLEI ?
Resp: 910

Req: Would you kindly repeat that for Hu002c-3 (antibody, V domains shown) VH: QVQLVQSGAEVKKPGASVKVSCKASGYTLTSYWMHWVRQAPGQGLEWMGEINPSQGRSNYNEKFKSRVTMTRDTSTSTVYMELSSLRSEDTAVYYCARRGVSGNYFDYWGQGTLVTVSS VL: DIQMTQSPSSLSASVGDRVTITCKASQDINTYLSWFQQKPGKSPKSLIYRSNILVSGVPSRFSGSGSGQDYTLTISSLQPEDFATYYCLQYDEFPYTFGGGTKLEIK ?
Resp: 902

Req: Would you kindly repeat that for Hu002c-2 (antibody, V domains shown) VH: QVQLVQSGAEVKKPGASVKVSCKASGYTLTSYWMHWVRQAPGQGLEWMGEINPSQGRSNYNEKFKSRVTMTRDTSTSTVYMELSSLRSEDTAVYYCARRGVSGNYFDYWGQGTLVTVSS VL: DIQMTQSPSSLSASVGDRVTITCKASQDINTYLSWFQQKPGKAPKSLIYRSNILVSGVPSRFSGSGSGQDYTLTISSLQPEDFATYYCLQYDEFPYTFGQGTKLEIK ?
Resp: 874
